The origin of these recorded values is patent US8211929B2.

The following compounds are listed with their measured IC50 values.
test target: IGF 3P (Homo sapiens, UniProt P08069)
Construct: human IGF1R kinase domain residues M954-C1367; made in house; host or cells: baculovirus expression (insect cells)
Sequence (P08069 954-1367): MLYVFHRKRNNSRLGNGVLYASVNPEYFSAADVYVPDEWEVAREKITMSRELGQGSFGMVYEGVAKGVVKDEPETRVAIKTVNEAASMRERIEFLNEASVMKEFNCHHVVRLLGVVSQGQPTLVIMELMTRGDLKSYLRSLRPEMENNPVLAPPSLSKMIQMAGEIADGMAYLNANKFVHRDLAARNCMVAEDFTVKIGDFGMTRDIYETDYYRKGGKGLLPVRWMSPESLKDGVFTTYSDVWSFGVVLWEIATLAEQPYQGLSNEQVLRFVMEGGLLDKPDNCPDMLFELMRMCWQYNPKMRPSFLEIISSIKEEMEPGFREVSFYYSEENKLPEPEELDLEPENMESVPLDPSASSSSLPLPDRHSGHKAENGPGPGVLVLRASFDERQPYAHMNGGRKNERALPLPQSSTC
run description: IGF1R kinase assay (LCCA), IGF 3P
Type: biochemical
assay context: IGF1R kinase LCCA assay

Input line: Please look up its IC50: `CCN(CC)CCCNc1nc(Nc2cc(C3CC3)n[nH]2)c(Cl)c(Nc2ccccc2Cl)n1`
Output line: 500 to 5000 nM

----------
test target: (Homo sapiens)
Construct: human IGF1R kinase domain residues M954-C1367; made in house; host or cells: baculovirus expression (insect cells)
run description: IGF1R kinase assay (LCCA), IGF 0P
Type: biochemical
assay context: IGF1R kinase LCCA assay
The following molecules are listed with their measured IC50 values.

Reference set (5 entries):
Input line: Please look up its IC50: CC(C)c1cc(Nc2cc(OCCN(C)C)nc(NCc3cc(-c4ccccc4)no3)n2)n[nH]1 [Example 518]
Output line: 50 to 500 nM

Input line: Please look up its IC50: O=C(c1cc(Nc2cc(C3CC3)[nH]n2)nc(NCc2cc(-c3ccccc3)no2)n1)N1CCOCC1 [Example 512]
Output line: 50 to 500 nM

Input line: Please look up its IC50: Cc1cc(Nc2cc(C3CC3)n[nH]2)nc(Nc2ccc(CCC(=O)N(C)C)cc2)n1 [Example 111]
Output line: 500 to 5000 nM

Input line: Please look up its IC50: CCN(CC)CCCNc1nc(Nc2ccccc2Cl)nc(Nc2cc(C3CC3)n[nH]2)c1Cl [Example 66]
Output line: 50 to 500 nM

Input line: Please look up its IC50: Cc1cc(Nc2cc(C3CC3)n[nH]2)nc(Nc2ccc(N(C)C)cc2)n1 [Example 213]
Output line: 500 to 5000 nM

Further cases:
Input line: Please look up its IC50: CN1CCN(C(=O)CCc2ccc(Nc3ncc(Br)c(Nc4cc(C5CC5)[nH]n4)n3)cc2)CC1 [Example 85]
Output line: 500 to 5000 nM

Input line: Please look up its IC50: Brc1cnc(Nc2cccc3ccccc23)nc1Nc1cc(C2CC2)[nH]n1 [Example 130]
Output line: 50 to 500 nM

Input line: Please look up its IC50: COc1ccc(-c2cc(CNc3ncc(Br)c(Nc4cc(C5CC5)[nH]n4)n3)on2)cc1 [Example 277]
Output line: > 5000 nM

Input line: Please look up its IC50: Clc1cccc(-c2ncc(CNc3ncc(Br)c(Nc4cc(C5CC5)[nH]n4)n3)s2)c1 [Example 290]
Output line: > 5000 nM

Input line: Please look up its IC50: CCN(CC)CCNc1cc(Nc2cc(C3CC3)[nH]n2)nc(NCc2cc(-c3ccccc3)no2)n1 [Example 45]
Output line: < 50 nM

Input line: Please look up its IC50: COc1ccc(C)cc1Nc1ncc(Br)c(Nc2cc(C3CC3)[nH]n2)n1 [Example 147]
Output line: 500 to 5000 nM

Input line: Please look up its IC50: c1ccc(-c2cc(CNc3nc(Nc4cc(C5CC5)n[nH]4)cc(N4CCCC4)n3)on2)cc1 [Example 12]
Output line: 50 to 500 nM

Input line: Please look up its IC50: Brc1cnc(Nc2ccccc2N2CCCCC2)nc1Nc1cc(C2CC2)[nH]n1 [Example 334]
Output line: > 5000 nM

----------
The following compounds are listed with their measured pIC50 values.
test target: (Homo sapiens, UniProt P08069)
Construct: human IGF1R kinase domain residues M954-C1367; made in house; host or cells: baculovirus expression (insect cells)
run description: IGF1R kinase assay (LCCA), IGF 0P
Format: biochemical
assay context: IGF1R kinase LCCA assay
pIC50: −log10 of the molar value.

Input line: Please look up its pIC50: `Cc1cc(Nc2cc(C3CC3)[nH]n2)nc(NCc2cc(C(=O)N3CCN(C)CC3)no2)n1`
Output line: 5.30 to 6.30

Further cases:
Input line: Please look up its pIC50: `CCN(CC)CCNC(=O)CCc1ccc(Nc2ncc(Br)c(Nc3ccccc3)n2)cc1`
Output line: 6.30 to 7.30

Input line: Please look up its pIC50: `CNCCc1ccc(Nc2nc(C)cc(Nc3cc(C4CC4)n[nH]3)n2)cc1`
Output line: 5.30 to 6.30

Input line: Please look up its pIC50: `Cc1cc(Nc2cc(C3CC3)n[nH]2)nc(Nc2ccc(CCN)cc2)n1`
Output line: 5.30 to 6.30

Input line: Please look up its pIC50: `CCN(CC)CCNC(=O)c1ccc(Nc2nccc(Nc3cc(C4CC4)n[nH]3)n2)cc1`
Output line: 5.30 to 6.30

Input line: Please look up its pIC50: `Brc1cnc(NCc2cc(-c3ccccc3)cs2)nc1Nc1cc(C2CC2)n[nH]1`
Output line: < 5.30

Input line: Please look up its pIC50: `c1ccc(-c2cc(CNc3nc4c(c(Nc5cc(C6CC6)[nH]n5)n3)CCNC4)on2)cc1`
Output line: < 5.30

Input line: Please look up its pIC50: `Brc1cnc(NCc2cc(-c3ccccc3)no2)nc1Nc1cc(C2CCCC2)n[nH]1`
Output line: 6.30 to 7.30

Input line: Please look up its pIC50: `Brc1cnc(NCc2csc(-c3cccs3)n2)nc1Nc1cc(C2CC2)[nH]n1`
Output line: 5.30 to 6.30

Input line: Please look up its pIC50: `Cc1cc(Nc2cc(C)nc(NCc3cc(-c4ccccc4)no3)n2)[nH]n1`
Output line: 6.30 to 7.30

Input line: Please look up its pIC50: `Cc1cc(Nc2cc(C3CC3)n[nH]2)nc(Nc2ccc(C3CCNCC3)cc2)n1`
Output line: 5.30 to 6.30

Input line: Please look up its pIC50: `CSc1ccccc1Nc1ncc(Br)c(Nc2cc(C3CC3)n[nH]2)n1`
Output line: 5.30 to 6.30

Input line: Please look up its pIC50: `O=C(NCCN1CCCCC1)c1cc(Nc2cc(C3CC3)[nH]n2)nc(NCc2cc(-c3ccccc3)no2)n1`
Output line: 6.30 to 7.30

Input line: Please look up its pIC50: `CC(C)c1cc(CNc2nc(NCCN3CCN(C)CC3)cc(Nc3cc(C(C)C)[nH]n3)n2)on1`
Output line: 6.30 to 7.30

----------
test target: IGF 3P (Homo sapiens, UniProt P08069)
Construct: human IGF1R kinase domain residues M954-C1367; made in house; host or cells: baculovirus expression (insect cells)
run description: IGF1R kinase assay (LCCA), IGF 3P
Format: biochemical
assay context: IGF1R kinase LCCA assay
pIC50: −log10 of the molar value.
measure: pIC50

Reference set (6 entries):
Input line: Please look up its pIC50: Brc1cnc(NCc2cc(-c3ccccc3)no2)nc1Nc1cc(C2CC2)[nH]n1 [Example 14]
Output line: 6.30 to 7.30

Input line: Please look up its pIC50: Nc1ccc(Nc2nc(Nc3cc(C4CC4)n[nH]3)ncc2Br)cc1 [Example 327]
Output line: < 5.30

Input line: Please look up its pIC50: Brc1ccc(Nc2ncc(Br)c(Nc3cc(C4CC4)n[nH]3)n2)c(Br)c1 [Example 163]
Output line: 5.30 to 6.30

Input line: Please look up its pIC50: Cc1cc(Nc2nc(Nc3ccccc3)ncc2Br)[nH]n1 [Example 90]
Output line: 6.30 to 7.30

Input line: Please look up its pIC50: Cc1cc(Nc2cc(C(C)C)[nH]n2)nc(NCc2cc(-c3cccc(Cl)c3)no2)n1 [Example 535]
Output line: 6.30 to 7.30

Input line: Please look up its pIC50: Brc1cnc(NCCC(c2ccccc2)c2ccccc2)nc1Nc1cc(C2CC2)[nH]n1 [Example 328]
Output line: < 5.30

Further cases:
Input line: Please look up its pIC50: Brc1cnc(NC(Cc2ccccc2)c2ccccc2)nc1Nc1cc(C2CC2)[nH]n1 (stereo not drawn) [Example 333]
Output line: < 5.30

Input line: Please look up its pIC50: Nc1ncnc2c1c(-c1cccc(OCc3ccccc3)c1)cn2C1CCCCC1 [Example 350]
Output line: 5.30 to 6.30

Input line: Please look up its pIC50: c1cc(Nc2cc(C3CCCC3)n[nH]2)nc(Nc2ccc(N3CCOCC3)cc2)n1 [Example 151]
Output line: 6.30 to 7.30

Input line: Please look up its pIC50: COc1cc(Nc2ncc(Br)c(Nc3cc(C)on3)n2)cc(OC)c1 [Example 53]
Output line: > 7.30

Input line: Please look up its pIC50: COC(=O)C1CCc2cc(Nc3nc(C)cc(Nc4cc(C5CC5)n[nH]4)n3)ccc2N1 (stereo not drawn) [Example 537]
Output line: 5.30 to 6.30

Input line: Please look up its pIC50: Cc1cc(Nc2cc(C3CC3)n[nH]2)nc(Nc2ccc(N3CCN(C)CC3)cc2)n1 [Example 569]
Output line: 5.30 to 6.30
